// provenance: paper PMC9090415

Target: UniProt:Q8ILY1
Test: Fluorescence-based high-throughput DNA polymerase assay (molecular beacon), primary screen and dose-response
Assay type: biochemical
Details: DRC-2; 40'; concentration 80
property: % inhibition Apol 40' (%)

compound	result_number
O=C(NNC(=O)c1ccc(Cl)cc1)C(=O)NNC(=O)c1ccc(Cl)cc1	62
COc1ccc(-c2n[nH]cc2Oc2ccc(Cl)cc2)c(O)c1	72
CCOc1ccc(/C=C2\N=C(c3cc([N+](=O)[O-])cc([N+](=O)[O-])c3)OC2=O)cc1	76
CCOc1cccc2cc(C(=O)Nc3nnc(-c4ccno4)o3)oc12	66
COc1ccc(C)cc1NC(=O)Cn1ccc2c(=O)[nH]ccc21 [Molecule 15, COc1ccc(cc1NC(=O)Cn1ccc2c1cc[nH]c2=O)C]	46
Cc1ccnc(NS(=O)(=O)c2ccc(-n3cccc3)cc2)n1	59
Cc1ccccc1C(=O)N1CCc2c(nc3cc(-c4ccccc4)[nH]n3c2=O)C1	54
NC(=O)c1cc[n+](CC2=C(C(=O)[O-])N3C(=O)[C@@H](NC(=O)[C@@H](c4ccccc4)S(=O)(=O)[O-])[C@H]3SC2)cc1.[Na+]	76
COc1cccc(Oc2c(C(F)(F)F)oc3cc(OC(=O)N(C)C)ccc3c2=O)c1	56
O=[N+]([O-])/C=C/c1ccc(-c2ccc(Br)cc2)o1	48
O=C1CCCC2=C1C(c1ccccn1)C1=C(CCCC1=O)O2	52
O=C(Nc1c2c(nn1-c1ccc(Oc3ccccc3)cc1)CSC2)c1ccco1	72
CCCCc1ccc(NC(=O)CSc2nc(O)c(C#N)c(C3CCCCC3)n2)c(C)c1	79
CCCCCCCCCCCC1SCC(C(=O)O)N1C(C)=O (stereo not shown)	76
Oc1cccc2ccc(/C=C/c3ccc4c(c3)OCO4)nc12	74
COc1ccc(-c2c(C(F)(F)F)nn3c(=O)cc(-c4cccc([N+](=O)[O-])c4)[nH]c23)cc1	79

* * *

Target: P. falciparum apicoplast DNA polymerase (Pf-apPOL) (Plasmodium falciparum, UniProt Q8ILY1)
Sequence (Q8ILY1 entry or part of it): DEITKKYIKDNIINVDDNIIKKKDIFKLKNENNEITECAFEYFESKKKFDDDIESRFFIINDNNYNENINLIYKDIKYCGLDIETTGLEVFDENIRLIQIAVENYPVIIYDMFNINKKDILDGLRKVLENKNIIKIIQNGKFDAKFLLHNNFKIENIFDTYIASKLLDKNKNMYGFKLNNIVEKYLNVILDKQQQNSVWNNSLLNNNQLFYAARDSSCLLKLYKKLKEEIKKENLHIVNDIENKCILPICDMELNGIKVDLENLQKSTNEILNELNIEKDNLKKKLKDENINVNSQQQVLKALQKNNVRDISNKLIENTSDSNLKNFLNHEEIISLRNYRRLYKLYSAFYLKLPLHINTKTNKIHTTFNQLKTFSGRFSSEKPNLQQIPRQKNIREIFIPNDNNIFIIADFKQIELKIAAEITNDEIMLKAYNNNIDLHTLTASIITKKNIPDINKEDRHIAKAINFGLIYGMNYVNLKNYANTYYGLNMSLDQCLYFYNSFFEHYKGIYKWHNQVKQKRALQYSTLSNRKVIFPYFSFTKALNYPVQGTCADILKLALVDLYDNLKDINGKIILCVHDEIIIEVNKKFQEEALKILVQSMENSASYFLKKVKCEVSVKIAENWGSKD
Assay: Fluorescence-based high-throughput DNA polymerase assay (molecular beacon), primary screen and dose-response;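 on % inhibition apPOL 180': test concentration in µM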
Type: biochemical
Details: DRC-2; 180'; concentration 2.5
Listed compounds paired with reported % inhibition apPOL 180'
property: % inhibition apPOL 180' (%)

compound	result_number
Cl.NC(CO)C(=O)NNCc1ccc(O)c(O)c1O (centres unmarked)	11
O=C(Nc1cccc(Cl)c1)Nc1nnc(-c2ccncc2)s1	6
O=C(NC(C(Cl)Cl)S(=O)(=O)c1ccccc1)c1ccccc1 (centres unmarked)	6.53
COc1ccc(S(=O)(=O)/N=C2\NC(=O)/C(=C3\C(=O)Nc4ccc([N+](=O)[O-])cc43)S2)cc1	4.38
O=C(NNC(=O)c1ccc(Cl)cc1)C(=O)NNC(=O)c1ccc(Cl)cc1	-2.65
OC(C#Cc1ccccc1)c1ccco1 (centres unmarked)	4.25
Cc1cccc2c(C(=O)NC(C)C)cc(N(C)C)nc12	1.25
O=C1c2ccccc2C(=O)N1Oc1ccc([N+](=O)[O-])c([N+](=O)[O-])c1	3
COc1ccc(CNC(=O)Cn2nc3c(c2NC(=O)Cc2cccs2)CSC3)cc1	-6.63
COc1cccc(C(=O)N2CCc3c(nc4cc(-c5ccccc5)[nH]n4c3=O)C2)c1OC	-0.311
COc1ccc(C=C2Oc3c(ccc4c3CN(c3ccc5c(c3)OCO5)CO4)C2=O)cc1OC	-0.788
O=c1[nH]c2ccc([N+](=O)[O-])cc2c(-c2ccccc2)c1Sc1nc2ccccc2o1	-0.297
O=c1nc(/C=C/c2ccc(Br)cc2)oc2ccccc12	6
CN(C)S(=O)(=O)Oc1ccc(-c2noc(-c3ccc(Oc4cc(Cl)cc(Cl)c4)o3)n2)cc1	-5.61
O=C(O)c1cccc(N2N=C(C(F)(F)F)/C(=C/c3ccc(-c4ccccc4[N+](=O)[O-])o3)C2=O)c1	14
COc1ccc(-c2n[nH]cc2Oc2ccc(Cl)cc2)c(O)c1	2.39
O=c1cc(-c2ccccc2Cl)oc2c(NS(=O)(=O)c3cc(Cl)cc(Cl)c3O)ccc(O)c12	-2.11
